# assay.details: NCI Yeast Anticancer Drug Screen. Data for the mec2-1 strain (AID 157)
# condition.context: S. cerevisiae mec2-1 strain, active compounds read high; at 50.0 µM unless noted
# Experimental: Growth inhibition of yeast strains with defined genetic alterations is measured as a screen for potential anti-cancer activity. Selected strains with alterations in DNA damage repair or cell cycle control were exposed to compounds and growth inhibition was measured relative to vehicle treated controls. The strain used in this assay is mec2-1
This is part of a sample that, as a whole, favours compounds with a hit. Of some 79,000 tested, about 15% had one in any assay.
measured.parameter: growth inhibition (%)
Please respond with the number in % and leave the unit unwritten.

> print(dat)
                                    compound  measured
 1  CCOc1ccc(N=Nc2c(-c3ccccc3)nn(C(=O)CC(=O)Nc3ccccc3Cl)c2-c2ccccc2)cc1      -8.2
 2  CC1=C(C(=O)Nc2ccccc2)C(c2ccc3c(c2)OCO3)C(C(=O)Nc2ccccc2)=C(C)N1      33.5
 3     CC(O)C1(O)CCCCC1 (stereo unspecified)     -1.95
 4  OC(CN1CCCC2CCCCC21)c1cc2c(c3ccccc13)CCCC2 (stereo unspecified)      96.7
 5           COc1cccc(/C=C/C(C)=N/NC(N)=O)c1      0.25
 6          CN1CCC/C1=N\C(=Nc1ccccc1)N1CCCC1      -1.8
 7      O=C(c1ccccc1)c1cccc(C(=O)c2ccccc2)c1     -11.3
 8      COc1ccc(N=Nc2nc(N)c(C(N)=O)[nH]2)cc1     -7.55
 9  CCCCCCCCN(CCCCCCCC)CC(O)c1cc(Cl)c(Cl)c(Cl)c1 (stereo unspecified)      12.3
10  CC(C)CCC(C)C1CCC2C3CCC4CC(=O)CC4(C)C3CCC12C (stereo unspecified)       7.2

Looking for the measured growth inhibition of O=Cc1c[nH]c2ccc(F)cc12 , can you help?
-19.4

====

# assay.details: NCI Yeast Anticancer Drug Screen. Data for the bub3 strain (AID 167)
# condition.context: S. cerevisiae bub3 mutant strain, active compounds read high; at 50.0 µM unless noted
The panel holds about 79,000 compounds, 15% with a hit somewhere; the sample as a whole holds those more often.
measured.parameter: growth inhibition (%)
The reply should contain only the number, in %.

> print(dat)
                compound  measured.parameter  measured
1  CCn1c2ccccc2c2ccccc21   growth inhibition     -8.15

Fill in the blank: the reported growth inhibition of COc1cc(O)c2c(=O)cc(-c3ccc(O)cc3O)oc2c1CC=C(C)C is ____.
-2.8

Consider the compound shown here: O=[N+]([O-])C(c1ccccc1)C(c1ccccc1)C(c1ccccc1)[N+](=O)[O-] (configuration not stated) What is its recorded growth inhibition?
22.6

Need growth inhibition, item Cc1cccc(C)c1NC(=S)N/C=C(\C#N)C(N)=O
-8.65

Sample O=C(O)c1ccc(NCn2c(=S)sc3ccccc32)cc1 — what was its growth inhibition?
11.8

# lookup: growth inhibition of O=C(OCc1ccccc1CN1CCCCC1)c1cccc(Cl)c1
7.35

May I ask what growth inhibition has been recorded for N#Cc1c(-c2ccccc2)c(-c2ccccc2)nn(CCO)c1=O ?
6.4

Suppose we examine the compound CC(=O)OCC1OC(n2c(=O)[nH]c(=O)c3n[nH]nc32)C(OC(C)=O)C(OC(C)=O)C1OC(C)=O (configuration not stated) ; what growth inhibition value has been reported?
-1.05

Item under review: CC1(C)COC1(c1ccccc1)c1cccnc1 (configuration not stated) . Reported growth inhibition?
8.15

Given the compound COc1ccc(C(OC(=O)Oc2ccccc2)c2ccccc2)cc1 (configuration not stated) , what is its reported growth inhibition?
-16.4

For the compound COc1ccccc1NC(=O)c1ccccc1 , what growth inhibition is on record?
2.75

So what does the record say about growth inhibition for O=C(NC1(Sc2ccccc2)CC1)c1ccc(Cl)cc1 ?
13.8

====

# assay.details: NCI Yeast Anticancer Drug Screen. Data for the mec2-1 strain (AID 157)
# condition.context: S. cerevisiae mec2-1 strain, active compounds read high; at 50.0 µM unless noted
About 79,000 compounds went through this panel and 15% of them were active in at least one assay; those are over-represented in the sample as a whole. Activity calls are given as the source filed them. Cut-off read from the data, not from the text of the source: active = growth inhibition above about 70%; inactive = the rest.
Reported growth inhibition is given for each of the following compounds.

See these solved cases before continuing.
> print(dat)
                                   compound           measured
1  Cc1ccc2nc(-c3ccc(NC(=O)c4ccc(N)cc4)c(S(=O)(=O)O)c3)sc2c1    4.7% (inactive)
2         CCOC(C)(Cc1ccccc1[N+](=O)[O-])OCC    4.3% (inactive)
3  OCC1=CC(O)C2C=COC(OC3OC(CO)C(O)C(O)C3O)C12 (stereo unspecified)  -24.6% (inactive)
4  CCCC(C)C(=O)OCc1ccccc1 (stereo unspecified)   -9.5% (inactive)
5  O=c1oc2ccccc2c(O)c1Cc1ccccc1Cc1c(O)c2ccccc2oc1=O   4.65% (inactive)
6  Cc1c2c(c(C)c3c1C(=O)c1cc4c(cc1C3=O)OCO4)OCO2  -4.35% (inactive)

Name the recorded growth inhibition for CCOC(Cc1ccccc1)OCC .
19.9% (inactive)

Entry under review: O=c1nc2sccn2c2ncccc12 . Reported growth inhibition?
5.35% (inactive)

Data request, read-out growth inhibition, for O=C1CCC(c2nc3ccccc3[nH]2)N1Cc1ccccc1 (stereo unspecified)
2.3% (inactive)

====

Catalogue of compounds with associated growth inhibition
# assay.details: NCI Yeast Anticancer Drug Screen. Data for the bub3 strain (AID 167)
# condition.context: S. cerevisiae bub3 mutant strain, active compounds read high; at 50.0 µM unless noted
About 79,000 compounds went through this panel and 15% of them were active in at least one assay; those are over-represented in the sample as a whole.
Numeric answer only, unit % assumed.

The following compounds have reported results that may help.
> print(dat)
                                   compound  measured
1                 CC(=O)Oc1ccc(CCC(=O)O)cc1      11.4
2  CC1CCC2COC(=O)CCC2(C)C1C (configuration not stated)     -17.4
3  Cc1c(Cl)cccc1NC(=O)C(=O)c1c(O)c2ccc(O)cc2oc1=O     -15.6
4            CCOC(=O)Nc1nc2ccccc2n1CN1CCCC1      22.4

Okay, next one:
So what does the record say about growth inhibition for C=C1CC(C)(COc2ccc3ccc(=O)oc3c2)OC1=O (configuration not stated) ?
17.6

====

# assay.details: NCI Yeast Anticancer Drug Screen. Data for the sgs1 mgt1 strain (AID 161);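 further: 0% = growth of cultures given vehicle only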
# condition.context: S. cerevisiae sgs1 mgt1 strain, active compounds read high; at 50.0 µM unless noted
About 79,000 compounds went through this panel and 15% of them were active in at least one assay; those are over-represented in the sample as a whole.
measured.parameter: growth inhibition (%)
The answer is to be given in %; state only the numeric part.

> print(dat)
                                   compound  measured.parameter  measured
1  OC1CSc2nc3ccccc3n2C1 (configuration not stated)   growth inhibition      12.3
2         COc1ccc(Cl)c2c(=O)c3ccccc3[nH]c12   growth inhibition       2.5
3  CCCCCC[N+]1([O-])CC[N+]([O-])(CCCCCC)CC1 (configuration not stated)   growth inhibition     -1.55
4                         O/N=C/c1ccc(O)cc1   growth inhibition     -14.4
5                  CCCCCCCOC(=O)C1(O)CCCCC1   growth inhibition      6.65
6  CCc1cccc(C(C)C)c1NC(=O)C(=O)Nn1c(=S)[nH]c2ccccc2c1=O   growth inhibition     -10.2

Could you now look at the following compound, please?
Please report the recorded growth inhibition for O=C(C/C(=N/O)c1ccccc1)c1ccccc1 .
-8.5

====

# assay.details: NCI Yeast Anticancer Drug Screen. Data for the cln2 rad14 strain (AID 165);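 further: 0% = growth equal to vehicle treated cultures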
# condition.context: S. cerevisiae cln2 rad14 strain, active compounds read high; at 50.0 µM unless noted
# Protocol: Growth inhibition of yeast strains with defined genetic alterations is measured as a screen for potential anti-cancer activity. Selected strains with alterations in DNA damage repair or cell cycle control were exposed to compounds and growth inhibition was measured relative to vehicle treated controls. The strain used in this assay is cln2 rad14
Compounds without any hit were thinned out: in the full panel of roughly 79,000, 15% have a hit.
measured.parameter: growth inhibition (%)
Just the number please, in %, no unit attached.

Solved cases below.
> print(dat)
                                   compound  measured
1  O=C(O)C(NCCCCCNC(C(=O)O)c1ccccc1)c1ccccc1 (configuration not stated)      24.9
2        COc1ccc2nc(C(=O)c3ccccc3)c(C)cc2c1       1.8
3             CC(=O)NCCc1c[nH]c2ccc(Cl)cc12     -11.6
4  O=C1C2(c3ccccc3)CCC1(c1ccccc1)C(c1ccccc1)=C2c1ccccc1      23.9
5    CCCCCC#CC[C@@H](O)[C@@H](O)COCc1ccccc1      29.2

The record that follows has no growth inhibition shown yet.
Any idea what growth inhibition was measured for NC(=O)CCCCCCCCC(N)=O ?
-4.75
